Origin of measurements: ChEMBL document CHEMBL4689842

Tested on: Fibroblast
Test: Multiplex assay against human fibroblast
Format: toxicity, cell-based
Settings: 24 h, 1 µM, compound concentration 1 uM, replicate 2
readout.name: Population Healthy Nuclei (%)

Task: Quick one: Population Healthy Nuclei (%) for COc1cc(Nc2nccc(-c3cnn4nc(OC)ccc34)n2)cc(C(F)(F)F)c1 ?
Output: 77%

Task: And for C=CC(=O)Nc1ccc2[nH]c(=O)n(C3CCN(Cc4ccc(-c5nc6cc[nH]c(=O)c6cc5-c5ccccc5)cc4)CC3)c2c1 ?
Output: 41%

Task: And for COc1cc2ncn(-c3cc(OCc4ccccc4C(F)(F)F)c(C(N)=O)s3)c2cc1OC [GW843682X] ?
Output: 74%

Task: And for O=C(c1cc2c(cc1F)OC(c1ccc(F)cc1)(c1ccc(Cl)cc1Cl)O2)N1CCOCC1 (centres undefined) ?
Output: 88%

---

Tested on: HEK-293T
Assay: Multiplex assay against HEK293T
Assay type: toxicity, cell-based
Conditions: human, 12 h, 1 µM, compound concentration 1 uM, replicate 2
Lab note: compare Population Healthy Nuclei (%) with 40%, writing Fulfilled if less and Not fulfilled if equal or more.

Task: Hi there! Is Population Healthy Nuclei (%) for CC(C)OC(=O)N1CCC(Oc2ncnc3c2cnn3-c2ccc(S(C)(=O)=O)cc2F)CC1 below 40%, do you know?
Output: Not fulfilled

Task: And for CCc1ccc(OCc2ccccc2C(=O)Nc2ccc3nc(C)cc(N)c3c2)cc1.Cl ?
Output: Fulfilled

Task: And for CC(C)NC(=O)N1CC[C@H](NC2=Nc3cc(F)ccc3N(CC(F)F)c3ccc(Cl)cc32)C1 ?
Output: Not fulfilled

Task: And for CC(C)(C)NC[C@H](O)COc1nsnc1N1CCOCC1 [TIMOLOL] ?
Output: Not fulfilled

Task: And for CCc1nn(CCCN2CCN(c3cccc(Cl)c3)CC2)c(=O)n1CCOc1ccccc1.Cl [NEFAZODONE HYDROCHLORIDE] ?
Output: Fulfilled

Task: And for Cc1ccc(C)c(Oc2ccncc2C(=O)N2CCN(C3CC3)c3ccccc32)c1 ?
Output: Not fulfilled

Task: And for Cc1ccc2c(c1)c1c(n2CCc2ccc(C)nc2)CCN(C)C1 [LATREPIRDINE] ?
Output: Fulfilled

Task: And for C=CC(=O)Nc1ccc2[nH]c(=O)n(C3CCN(Cc4ccc(-c5nc6cc[nH]c(=O)c6cc5-c5ccccc5)cc4)CC3)c2c1 [Borussertib] ?
Output: Not fulfilled

Task: And for COc1cc(Nc2nccc(-c3cnn4nc(OC)ccc34)n2)cc(C(F)(F)F)c1 ?
Output: Not fulfilled

Task: And for CCCSc1nc(N[C@@H]2C[C@H]2c2ccc(F)c(F)c2)c2nnn([C@@H]3C[C@H](OCCO)[C@@H](O)[C@H]3O)c2n1 [TICAGRELOR] ?
Output: Not fulfilled

---

Please go through the items and note down their Total Cell Count.
Tested on: Fibroblast
Experiment: Multiplex assay against human fibroblast
Type: toxicity, cell-based
Settings: 24 h, 10 µM, compound concentration 10 uM, replicate 2
Number, no unit, nothing else.

Task: Quick one: Total Cell Count for CN1CCN(Cc2ccc(Nc3ncc(Cl)c(Nc4ccccc4S(=O)(=O)N(C)C)n3)cc2)CC1 [DUBERMATINIB] ?
Output: 87

Task: And for CCCSc1nc(N[C@@H]2C[C@H]2c2ccc(F)c(F)c2)c2nnn([C@@H]3C[C@H](OCCO)[C@@H](O)[C@H]3O)c2n1 [TICAGRELOR] ?
Output: 80

Task: And for Cc1ccccc1C(c1ccccc1C)N1C2CCC1CC(O)(c1ccccc1)C2 (stereo not given) ?
Output: 85

Task: And for Cc1ccc(C)c(Oc2ccncc2C(=O)N2CCN(C3CC3)c3ccccc32)c1 ?
Output: 65

Task: And for C=CC(=O)Nc1cccc(Oc2nc(Nc3ccc(N4CCN(C)CC4)cc3OC)ncc2Cl)c1 ?
Output: 85

Task: And for Cc1nc(N2CC[C@H](O)C2)ncc1-c1cc(C(F)(F)F)cc2[nH]ncc12 ?
Output: 77

Task: And for CC(C)OC(=O)N1CCC(Oc2ncnc3c2cnn3-c2ccc(S(C)(=O)=O)cc2F)CC1 ?
Output: 93

Task: And for COc1cc2ncn(-c3cc(OCc4ccccc4C(F)(F)F)c(C(N)=O)s3)c2cc1OC [GW843682X] ?
Output: 67

Task: And for Cl.O=C(O)c1cc(-c2ccc(C3CCNCC3)cc2)c2ccc(-c3ccc(C(F)(F)F)cc3)cc2c1 ?
Output: 56

Task: And for CC(C)Oc1ccccc1C(=O)Nc1ccccc1C(=O)Nc1cccc(S(=O)(=O)C(F)(F)F)c1 ?
Output: 55
